Reference source for all entries: a melting point compilation (Tetko et al.; mined from patent text by program, amines drawn as free bases though some values may be those of a salt)

Recorded measurements of melting point, one per entry

Worked set:
{"Smiles representation": "CCCCC1=NC2(CCCC2)C(=O)N1Cc1ccc(-c2ccccc2S(=O)(=O)Nc2noc(C)c2C)c(CO)c1", "melting point": "90 to 98 °C"}
{"Smiles representation": "O=[N+]([O-])c1ccc(N2CCN(Cc3ccccc3)S2(=O)=O)cc1", "melting point": "164 to 165 °C"}
{"Smiles representation": "CON(C)C(=O)c1cc2c(Sc3ccc(C)cc3)cncc2s1", "melting point": "103 to 107 °C"}
{"Smiles representation": "CCc1cc(C)cc(CC)c1C1C(=O)CC2(CCOCC2)CC1=O", "melting point": "139 to 141 °C"}

Quick one: melting point of `NS(=O)(=O)Cc1ccc(NCC(=O)N2CCC(Oc3ccc(Cl)cc3)CC2)cc1` ? 180 to 187 °C
